Tested on: CCRF-CEM leukemia
Assay: NCI tumour cell line growth inhibition, 48 h
*1 amine or outer side, *2 acyl side, *3 side chain or, on linkers, in order; H or OH if unused. Where a SMILES comes first, the peptide text is derived from it. Bridges are numbered along the chain shown (N, C = ends). Roman numbers before positions name the chains, in order. X23 = CCCCCCCCCCCCCCC(=O)NC(CCCCN[*:2])C(=O)CN1CCCC1C(=O)[*:1]
TGI: recorded values
The reply should contain only the number, in µM.

Solved entries:
Quick check: TGI of C[As](C)SCC(NC(=O)CCC(N)C(=O)O)C(=O)NCC(=O)O.Cl.c1ccncc1 (centres undefined) ?
6.31

Now the same for CCOC(=O)C1=C(C)NC(C)=C(C(=O)OCC)C1c1cc(Br)c(O)c(OC)c1
15.7

Now the same for CC1=C(C(=O)Nc2cccc(C(F)(F)F)c2)C(c2ccccc2F)C(C(=O)Nc2cccc(C(F)(F)F)c2)=C(C)N1
12.4

More entries:
Quick check: TGI of CCCCCCCCCCCCCCC(=O)NC(CCCCNC(=O)C1CCCN1C(=O)C(CCCCN)NC(=O)C(CCCCN)NC(=O)C(CCCCN)NC(=O)C(CCCNC(=N)N)NC(=O)C(CCCCN)NC(=O)C(N)C(C)C)C(=O)CN1CCCC1C(=O)NCC(=O)NC(Cc1ccccc1)C(=O)N1CCCC1C(=O)NC(CO)C(=O)NC(Cc1ccc(O)cc1)C(=O)NC(CCCCN)C(=O)NC(CC(C)C)C(=O)NC(CCCNC(=N)N)C(=O)N1CCCC1C(=O)NCC(N)=O (centres undefined) (I: GFPSYKLRPG-NH2 / II: H-VKRKKKP; linker I:N-II:C via X23; configuration not given here) ?
35.1

* * *

TGI: recorded values
System: SF-539 CNS
Experiment: NCI tumour cell line growth inhibition, 48 h

Solved entries:
Quick check: TGI of O=S(=O)(CC(O)C(Cl)(Cl)Cl)NNc1ccccc1 (stereo not drawn) ?
> 100 µM

Now the same for Clc1ccc(/C=C/c2nc(-c3ccc(Cl)cc3)cn3c2nc2ccccc23)cc1
> 100 µM

More entries:
Quick check: TGI of CC(=O)c1c2c(cc3c1CC1(C3)Cc3ccc4c(c3C1=O)CCC4)CCC2 (stereo not drawn) ?
> 100 µM

* * *

GI50: recorded values
Tested on: NCI-H522 lung
Experiment: NCI tumour cell line growth inhibition, 48 h

Solved entries:
Quick check: GI50 of O=[N+]([O-])c1ccc(Oc2cccc(C(F)(F)F)c2)c([N+](=O)[O-])c1 ?
2.11 µM

Now the same for CC(C)(C)C(=O)CC(=O)C(F)(F)C(F)(F)C(F)(F)F.CC(C)(C)C(=O)CC(=O)C(F)(F)C(F)(F)C(F)(F)F.CC(C)(C)C(=O)CC(=O)C(F)(F)C(F)(F)C(F)(F)F.[Er]
94 µM

Now the same for CCOC(=O)C1=C(C)NC(C)=C(C(=O)OCC)C1c1cc(Br)c(O)c(OC)c1
4.22 µM

More entries:
Quick check: GI50 of CCCCCCCCn1ccc2cc(NC(=O)Cn3cc(CN4CCC(C)CC4)nn3)ccc21 ?
1.73 µM

* * *

Tested on: UACC-257 melanoma
Assay: NCI tumour cell line growth inhibition, 48 h
TGI: recorded values
The reply should contain only the number, in µM.

Solved entries:
Quick check: TGI of Cc1ccc(NC(C(=O)c2ccccc2)c2ccccc2)cc1 (centres undefined) ?
8.42

Now the same for CCCCCCCCCCCCNC(=O)[C@H]1CSC(c2cc(Br)cs2)N1 (some centres undefined)
3

Now the same for COc1cc(CCC(=O)O)c2cc3ccccc3cc2c1O
31

In the following, a different molecule is considered.
Quick check: TGI of Cc1cc(NS(=O)(=O)c2ccc(NC(=O)COc3ccc(-c4cc5ccccc5[nH]4)cc3)cc2)no1 ?
6.27

* * *

Test system: ACHN renal
Assay: NCI tumour cell line growth inhibition, 48 h
TGI: recorded values

Solved entries:
Quick check: TGI of N#CC12CC=C(c3ccccc3)N=C1NC(c1ccccc1)=CC2 (stereo unspecified) ?
> 100 µM

Now the same for Cc1ccc(N(C)S(=O)(=O)c2ccccc2)cc1
> 100 µM

Now the same for COc1ccc2[nH]c3c(C)c4ccnc(NCCCN(C)CCCN)c4c(C)c3c2c1
0.514 µM

Now the same for [CH3][Sn]([CH3])([CH3])[O]C(=O)C(O)c1ccccc1 (stereo unspecified)
> 100 µM

Now the same for c1ccc2c(c1)ccc1nc3ccccn3c12
> 100 µM

More entries:
Quick check: TGI of O=C1NC(=O)C(N2CCc3ccccc32)=C1c1ccc(Cl)cc1 ?
> 25 µM

Now the same for CCOc1ccc(/C=N\N2C(=O)c3ccccc3C2=O)cc1
> 100 µM

Now the same for Cc1nn2c(=O)n(-c3cccc(-n4nnc5c(-c6ccccc6)c(C)nn5c4=O)c3C)nnc2c1-c1ccccc1
76.7 µM

Now the same for CN=c1ss/c(=N\C(=S)N(C)C)n1C1CCCCC1
> 31.6 µM

Now the same for CC(=O)C(CN(C)Cc1ccccc1)C(c1ccccc1)c1c(O)c2ccccc2oc1=O (stereo unspecified)
> 100 µM

Now the same for Cc1cc(O)c2cc3c(O)c(O)ccc3cc2c1
5.71 µM

* * *

Test system: SNB-75 CNS
Experiment: NCI tumour cell line growth inhibition, 48 h; in the data active means GI50 below about 0.43 µM; inactive means the rest
*1 amine or outer side, *2 acyl side, *3 side chain or, on linkers, in order; H or OH if unused. Where a SMILES comes first, the peptide text is derived from it. Bridges are numbered along the chain shown (N, C = ends). Roman numbers before positions name the chains, in order. X23 = CCCCCCCCCCCCCCC(=O)NC(CCCCN[*:2])C(=O)CN1CCCC1C(=O)[*:1]
Returns: one label drawn from active, inactive

For N#Cc1ccc(N2Cc3cc(Cl)ccc3OC3=C2C(=O)N(Cc2ccc(F)cc2)C3=O)cc1 , which call appears in the assay record?
inactive

More entries:
For COc1cc(-c2nccc3[nH]c(-c4cccc5[nH]ccc45)nc23)cc(OC)c1OC , which call appears in the assay record?
active

Now the same for O=C1c2cccc3cccc(c23)C(=O)N1CC#Cc1ccc2c3c(cccc13)C(=O)N(CCN1CCNCC1)C2=O
inactive

Now the same for CCOC(=O)C1=C(C)NC(C)=C(C(=O)OCC)C1c1cc(Br)c(O)c(OC)c1
inactive

Now the same for CCCCCCCCCCCCCCC(=O)NC(CCCCNC(=O)C1CCCN1C(=O)C(CCCCN)NC(=O)C(CCCCN)NC(=O)C(CCCCN)NC(=O)C(CCCNC(=N)N)NC(=O)C(CCCCN)NC(=O)C(N)C(C)C)C(=O)CN1CCCC1C(=O)NCC(=O)NC(Cc1ccccc1)C(=O)N1CCCC1C(=O)NC(CO)C(=O)NC(Cc1ccc(O)cc1)C(=O)NC(CCCCN)C(=O)NC(CC(C)C)C(=O)NC(CCCNC(=N)N)C(=O)N1CCCC1C(=O)NCC(N)=O (stereo not given) (I: GFPSYKLRPG-NH2 / II: H-VKRKKKP; linker I:N-II:C via X23; configuration not given here)
inactive

* * *

Tested on: NCI-H23 lung
Assay: NCI tumour cell line growth inhibition, 48 h
TGI: recorded values

Solved entries:
Quick check: TGI of CC(=O)NC1CCCN(O)C(=O)/C=C(/C)CCOC(=O)C(NC(C)=O)CCCN(O)C(=O)/C=C(/C)CCOC(=O)C(NC(C)=O)CCCN(O)C(=O)/C=C(/C)CCOC1=O.[Fe] (centres undefined) ?
> 100 µM

Now the same for O=C(/C=C/c1cc(F)ccc1F)OCCc1ccccc1
> 100 µM

Now the same for Cc1ccc(S(=O)(=O)C(C#N)c2nc3ccccc3nc2N2CCOCC2)cc1 (centres undefined)
55.1 µM

More entries:
Quick check: TGI of Cc1ccc(S(=O)(=O)N/N=C2/C3C(CC2(C)C)C2(C)CCCC3(C)C2O)cc1 (centres undefined) ?
42.8 µM

Now the same for Cc1ccc(-c2c3c(N)nc(-c4ccncc4)nc3nc3c2c(C)nn3-c2ccccc2)cc1
> 37.5 µM

Now the same for O=C1c2ccccc2-c2c1c1c(O)cccc1n2CCCc1ccccc1
> 100 µM

* * *

System: UACC-257 melanoma
Assay: NCI tumour cell line growth inhibition, 48 h
TGI: recorded values

Solved entries:
Quick check: TGI of NS(=O)(=O)c1cccc(-c2cc3ccncc3cc2OCc2ccccc2)c1 ?
> 25 µM

Now the same for O=C(Cc1nc2ccc(C(=O)c3ccccc3)cc2[nH]c1=O)C(=O)Nc1ccc(C(F)(F)F)cc1[N+](=O)[O-]
> 100 µM

Now the same for Cc1ccc(S(=O)(=O)Nc2cccc(C)c2C)cc1
> 100 µM

Now the same for N#CC12CC=C(c3ccccc3)N=C1NC(c1ccccc1)=CC2 (centres undefined)
> 100 µM

Now the same for CCOC(=O)c1c(SC)nc(-c2ccc(Cl)cc2)sc1=N
> 100 µM

More entries:
Quick check: TGI of Oc1ccc(NCc2cc(O)ccc2O)cc1 ?
32 µM

Now the same for O=C1NC(=O)/C(=C/c2ccc(S(=O)(=O)N/N=C/c3ccccc3)cc2)N1
> 100 µM
